Tested on: Escherichia coli TOP10;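 further: peptides expressed intracellularly from a pBAD plasmid library in pooled LB shake-flask culture, induced with 0.3% L-arabinose, DNA abundance read by NGS, three biological replicates, DESeq2 with apeglm shrinkage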
Assay details: shrunken log2 fold change of peptide-encoding DNA abundance (4.5 h post-induction vs induction); higher = less antimicrobial activity (less host growth inhibition)
Test parameters: time post-induction: 4.5 h; library: site-saturation at positions 5, 18, 19, 20
Threshold check on shrunken log2 fold change: at or above -0.03 gives label 1, strictly below gives label 0.

- Sequence record: "RRIRKRPPRLPRPRPRPCMLPRP"
  Target: "Escherichia coli TOP10"
  Group: "label 0"
- Sequence record: "RRIRNRPPRLPRPRPRPKLGPRP"
  Target: "Escherichia coli TOP10"
  Group: "label 1"
- Sequence record: "RRIRVRPPRLPRPRPRPYWMPRP"
  Target: "Escherichia coli TOP10"
  Group: "label 0"
- Sequence record: "RRIRYRPPRLPRPRPRPCPSPRP"
  Target: "Escherichia coli TOP10"
  Group: "label 1"
- Sequence record: "RRIRYRPPRLPRPRPRPQSEPRP"
  Target: "Escherichia coli TOP10"
  Group: "label 0"
